# target.or.system: Thyrotropin receptor (Homo sapiens) (UniProt P16473)
# Sequence (P16473 whole entry, looked up): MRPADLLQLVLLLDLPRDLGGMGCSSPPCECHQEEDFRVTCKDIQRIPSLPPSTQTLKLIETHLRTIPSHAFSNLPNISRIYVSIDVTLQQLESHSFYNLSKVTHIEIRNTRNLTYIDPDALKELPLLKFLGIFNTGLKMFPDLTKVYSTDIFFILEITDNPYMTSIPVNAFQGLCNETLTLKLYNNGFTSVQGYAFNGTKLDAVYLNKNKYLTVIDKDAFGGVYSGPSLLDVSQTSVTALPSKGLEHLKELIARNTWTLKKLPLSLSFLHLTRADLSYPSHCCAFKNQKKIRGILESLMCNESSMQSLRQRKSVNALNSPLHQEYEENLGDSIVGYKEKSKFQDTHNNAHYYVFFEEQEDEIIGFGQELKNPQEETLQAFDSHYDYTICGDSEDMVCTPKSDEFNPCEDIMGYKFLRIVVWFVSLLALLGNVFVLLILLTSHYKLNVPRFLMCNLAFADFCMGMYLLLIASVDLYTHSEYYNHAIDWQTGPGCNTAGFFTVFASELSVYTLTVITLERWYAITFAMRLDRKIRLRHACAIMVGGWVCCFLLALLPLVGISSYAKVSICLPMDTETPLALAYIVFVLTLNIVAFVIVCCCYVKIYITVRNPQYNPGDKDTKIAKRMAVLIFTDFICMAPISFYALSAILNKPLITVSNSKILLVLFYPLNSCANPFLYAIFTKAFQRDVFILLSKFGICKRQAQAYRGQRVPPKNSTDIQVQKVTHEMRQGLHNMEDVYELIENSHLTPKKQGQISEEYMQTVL
# protocol.text: qHTS assay to identify small molecule antagonists of the thyroid stimulating hormone receptor (TSHR) signaling pathway (AID 1259385); note: nearly all actives have a fitted effect of over 20% in size
# measurement.parameters: TSHR-HEK293 cAMP HTRF, TSH-stimulated antagonist mode; series mostly up to 92.4 µM
Inconclusive results are not listed. Activity calls are given as the source filed them. Calls come from the whole dose curve.
Response enum: TRUE for active, FALSE for inactive

Field: example entries. Status: answers known.
{"molecule": "CC(C)=CCC1C(=O)N(c2ccccc2)N(c2ccccc2)C1=O", "cat": "FALSE"}
{"molecule": "NC1[C@H]2CN(c3nc4c(cc3F)c(=O)c(C(=O)O)cn4-c3ccc(F)cc3F)C[C@@H]12 (stereo not given in full)", "cat": "FALSE"}
{"molecule": "COc1cc(Nc2c(C#N)cnc3cc(OCCCN4CCN(C)CC4)c(OC)cc23)c(Cl)cc1Cl", "cat": "TRUE"}

Exercise: I would be grateful if you could indicate the recorded call for Clc1ccc(Nc2nnc(Cc3ccncc3)c3ccccc23)cc1 .
Solution: FALSE

Exercise: I would be grateful if you could indicate the recorded call for CC(C)Nc1cccnc1N1CCN(C(=O)c2cc3cc(NS(C)(=O)=O)ccc3[nH]2)CC1 .
Solution: FALSE
